All values here come from PubChem BioAssay (NCI).

Tested on: SW-620 colon
protocolDescription: NCI tumour cell line growth inhibition, 48 h
measureName: TGI

Input: For SW-620 colon, provide TGI of CCn1ccnc1C(=O)/C=C/c1ccc(CC(=O)Nc2ccc(F)cc2)cc1 please.
Output: > 16.7 µM

Input: Can you look up TGI on SW-620 colon for CN(C)CCCn1c2c(c3cc4c(cc3c1=O)OCO4)C(=O)c1ccccc1-2 ?
Output: > 39.9 µM

Input: Find TGI (SW-620 colon) for the entry CCCC(=O)OCOC(=O)N(C)N=Nc1ccc(C(=O)OCC)cc1
Output: 66.3 µM

Go through the list and state TGI for each entry.
1. CN(CCNC(=S)c1cn(C)c2c1ccc1ccccc12)CCNC(=S)c1cn(C)c2c1ccc1ccccc12
2. C=CCNC(=O)CN(CC(=O)O)C1CCCCC1N(CC(=O)O)CC(=O)O (stereo unspecified)
3. O=c1ccc2ccccc2c2ccccc12

Output:
["> 100 µM", "> 100 µM", "10.9 µM"]

Field: TGI. Fill in for each record below.
1. c1ccc(-c2csc3ncn4cnnc4c23)cc1
2. COc1ccccc1C1c2cc3c(cc2OC(N2CCCC2)C1C)OCO3 (stereo unspecified)
3. O=c1[nH]c(=S)[nH]c(-c2ccccc2)c1Cc1c(O)ccc2ccccc12

Output:
["> 100 µM", "44.7 µM", "> 100 µM"]

Each of the following entries comes with a recorded value; kindly state TGI for each.
1. C=C(CCC=C(C)C)C1CC=C(C)CC1 (stereo unspecified)
2. C/C(N=NS(=O)(=O)c1ccc(C)cc1)=C1\C=CC=CN1O

Output:
["53.6 µM", "> 100 µM"]
